Tested on: HCC-44
Test: relative viability (nuclei count vs DMSO), 5 days (fraction); higher = more cells survive
Conditions: first compound 0.1265 µM
quantity-measured: relative viability
Lab note: record the figure alone, no unit after it.

Field: example entries. Status: answers known.
compound	quantity-measured	assay-result
Clc1ccc(Nc2nnc(Cc3ccncc3)c3ccccc23)cc1 [Vatalanib] + CS(=O)(=O)CCNCc1ccc(-c2ccc3ncnc(Nc4ccc(OCc5cccc(F)c5)c(Cl)c4)c3c2)o1 [Lapatinib] (partner 2 µM)	relative viability	0.941
C[C@@H]1CN(CC(=O)Nc2ccc3c(c2)Cc2cccc(-c4cc(=O)cc(N5CCOCC5)o4)c2S3)C[C@H](C)O1 + CS(=O)(=O)CCNCc1ccc(-c2ccc3ncnc(Nc4ccc(OCc5cccc(F)c5)c(Cl)c4)c3c2)o1 [Lapatinib] (partner 2 µM)	relative viability	1.02
C[C@@H]1CN(CC(=O)Nc2ccc3c(c2)Cc2cccc(-c4cc(=O)cc(N5CCOCC5)o4)c2S3)C[C@H](C)O1 + CCNC(=O)c1noc(-c2cc(C(C)C)c(O)cc2O)c1-c1ccc(CN2CCOCC2)cc1 [Luminespib] (partner 0.01 µM)	relative viability	1.04
COc1cc(N2CCC(C(N)=O)CC2)ccc1Nc1nc(N)c(Cl)c(Nc2ccccc2S(=O)(=O)C(C)C)n1 [HG-5-88-01] + O=C(c1cc(Cc2n[nH]c(=O)c3ccccc23)ccc1F)N1CCN(C(=O)C2CC2)CC1 [Olaparib] (partner 8 µM)	relative viability	0.957
Clc1ccc(Nc2nnc(Cc3ccncc3)c3ccccc23)cc1 [Vatalanib] + Nc1nc2[nH]cc(CCc3ccc(C(=O)N[C@@H](CCC(=O)O)C(=O)O)cc3)c2c(=O)[nH]1 [Pemetrexed] (partner 0.2 µM)	relative viability	0.61

Query :: What value of relative viability on HCC-44 does COc1cc(N2CCC(C(N)=O)CC2)ccc1Nc1nc(N)c(Cl)c(Nc2ccccc2S(=O)(=O)C(C)C)n1 [HG-5-88-01] + CS(=O)(=O)CCNCc1ccc(-c2ccc3ncnc(Nc4ccc(OCc5cccc(F)c5)c(Cl)c4)c3c2)o1 [Lapatinib] (partner 2 µM) have?
Result :: 0.987

Query :: Another compound to check: C[C@@H]1CN(CC(=O)Nc2ccc3c(c2)Cc2cccc(-c4cc(=O)cc(N5CCOCC5)o4)c2S3)C[C@H](C)O1 + Cc1cc(Nc2cc(N3CCN(C)CC3)nc(Sc3ccc(NC(=O)C4CC4)cc3)n2)n[nH]1 [Tozasertib] (partner 0.1 µM)
Result :: 0.933

Query :: Try this compound too: C[C@@H]1CN(CC(=O)Nc2ccc3c(c2)Cc2cccc(-c4cc(=O)cc(N5CCOCC5)o4)c2S3)C[C@H](C)O1 + CC(C)C[C@H](NC(=O)[C@H](Cc1ccccc1)NC(=O)c1cnccn1)B(O)O [Bortezomib] (partner 0.002 µM)
Result :: 0.938

These entries and their values trace back to the supplement of paper PMC10307832.
